# Test system: CP
# experiment_summary: SPR binding of CP to immobilized GST-CD2AP / GST-CARMIL fragments
# Design: species or system chicken
# condition_description: SPR (Biacore), GST-fusion immobilized, CP perfused, 20°C, pH 7.0; 1:1 binding model
Where no end group is shown, it is not given here.
observed_property: koff (s⁻¹)

GST-CD47: GST fusion of human CD2AP residues 461–507 (FDSLTVRTSKETDVVNFDDIASSENLLHLTANRPKMPGRRLPGRFNG; also: GST fusion, end not given here)	0.029
GST-CD44: GST fusion of human CD2AP residues 461–504 (FDSLTVRTSKETDVVNFDDIASSENLLHLTANRPKMPGRRLPGR; also: GST fusion, end not given here)	0.033
